Provenance of the data: patent US20250195513A1

# test-target: IRAK4 (Homo sapiens, UniProt Q9NWZ3)
# Construct: endogenous in cells; host or cells: Karpas299
# protocol-summary: IRAK4 Degradation Assay with Human Serum (Karpas299, HTRF/TR-FRET)
# Type: cell-based
# condition-set: Karpas-299 in human serum, 24 hrs treatment; read-out: IRAK4 degradtion with human serum assay DC50
recorded-metric: log10(DC50) (log10 of the value in nM)
In plain terms, each number is the log10 of measured DC50 in nM.

Exam item: What measured log10(DC50) is associated with `CC(C)(O)c1cc2nn([C@H]3CC[C@H](N4CCN(C(=O)[C@@H]5CCN(c6ccc(N7CCC(=O)NC7=O)cc6)C5)CC4)CC3)cc2cc1NC(=O)c1ccc2cc(C#N)cnn12` on IRAK4 (Homo sapiens, UniProt Q9NWZ3)?
Marked response: 1.18

Exam item: What do you get for `C[C@H]1CN(CC2CN(c3cc(F)c([C@H]4CCC(=O)NC4=O)c(F)c3)C2)CCN1[C@H]1CC[C@H](n2cc3cc(NC(=O)c4ccc5cc(C#N)cnn45)c(C(C)(C)O)cc3n2)CC1` ?
Marked response: 0.92

Exam item: Query `CC(C)(O)c1cc2nn(C34CC(N5CCN(C(=O)[C@@H]6CCN(c7cc(F)c([C@H]8CCC(=O)NC8=O)c(F)c7)C6)CC5)(C3)C4)cc2cc1NC(=O)c1cccc(C(F)(F)F)n1` next
Marked response: 1.74

Exam item: Please answer likewise for `COC[C@@H]1CN(C2CCN(c3cc(F)c([C@H]4CCC(=O)NC4=O)c(F)c3)CC2)CCN1[C@H]1CC[C@H](n2cc3cc(NC(=O)c4ccc5cc(C#N)cnn45)c(C(C)(C)O)cc3n2)CC1`
Marked response: 1.28

Exam item: Now give it for CC(C)(O)c1cc2nn([C@H]3CC[C@H](N4CCN([C@H]5CCN(c6cc(F)c(C7CCC(=O)NC7=O)c(F)c6)C5)CC4)CC3)cc2cc1NC(=O)c1ccc2cc(C#N)cnn12 (stereo partly shown) too.
Marked response: 1.32

Exam item: Also `CC(C)(O)c1cc2nn([C@H]3CC[C@H](N4CCN(C[C@@H]5CCN(c6cc(F)c([C@H]7CCC(=O)NC7=O)c(F)c6)C5)CC4)CC3)cc2cc1NC(=O)c1ccc2cc(C#N)cnn12` , if possible.
Marked response: 1.04

Exam item: Record: `CC(C)(O)C[C@H]1CN(CCc2cc(F)c([C@H]3CCC(=O)NC3=O)c(F)c2)CCN1[C@H]1CC[C@H](n2cc3cc(NC(=O)c4ccc5cc(C#N)cnn45)c(C(C)(C)O)cc3n2)CC1`
Marked response: 0.48

Exam item: Would you mind doing `COC[C@@H]1CN(C[C@@H]2CCN(c3cc(F)c([C@H]4CCC(=O)NC4=O)c(F)c3)C2)CCN1[C@H]1CC[C@H](n2cc3cc(NC(=O)c4ccc5cc(C#N)cnn45)c(C(C)(C)O)cc3n2)CC1` as well?
Marked response: 1.08

Exam item: // query: CC(C)(O)c1cc2nn([C@H]3CC[C@H](N4CCN(C(=O)N5CCN(c6ccc(C7CCC(=O)NC7=O)cc6)CC5)CC4)CC3)cc2cc1NC(=O)c1ccc2cc(C#N)cnn12 (stereo partly shown)
Marked response: 1.57

Exam item: Next compound up: `CC(C)(O)c1cc2nn([C@H]3CC[C@H](N4CCN(C5CCN(c6cc(F)c(N7CCC(=O)NC7=O)c(F)c6)CC5)CC4)CC3)cc2cc1NC(=O)c1ccc2cc(C#N)cnn12`
Marked response: 0.97

* * *

What Dmax was measured for each of the following?
# test-target: IRAK4 (Homo sapiens)
# Construct: endogenous in cells; host or cells: Karpas299
# Sequence (Q9NWZ3 1-460): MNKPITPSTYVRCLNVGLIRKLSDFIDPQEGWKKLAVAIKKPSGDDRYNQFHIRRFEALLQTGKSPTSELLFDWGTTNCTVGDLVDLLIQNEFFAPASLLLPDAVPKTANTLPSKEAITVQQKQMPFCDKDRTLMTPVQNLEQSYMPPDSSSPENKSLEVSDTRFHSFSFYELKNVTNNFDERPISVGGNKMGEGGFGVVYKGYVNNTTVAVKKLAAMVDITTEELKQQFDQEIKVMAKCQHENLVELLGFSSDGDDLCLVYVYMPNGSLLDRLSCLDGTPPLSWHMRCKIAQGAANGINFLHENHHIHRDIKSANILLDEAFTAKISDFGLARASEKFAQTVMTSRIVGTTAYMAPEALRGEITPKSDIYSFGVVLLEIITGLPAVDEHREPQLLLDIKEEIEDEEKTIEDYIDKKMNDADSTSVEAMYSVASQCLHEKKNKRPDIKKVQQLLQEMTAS
# protocol-summary: IRAK4 Degradation Assay with Human Serum (Karpas299, HTRF/TR-FRET)
# Format: cell-based
# condition-set: Karpas-299 in human serum, 24 hrs treatment; read-out: IRAK4 degradtion with human serum assay Dmax (%)
Answer with a number only, understood to be in %.

Exam item: What measured Dmax goes with CC(C)(O)c1cc2nn([C@H]3CC[C@H](N4CCN([C@H]5C[C@H](c6ccc(N[C@H]7CCC(=O)NC7=O)cc6)C5)CC4)CC3)cc2cc1NC(=O)c1ccc2cc(C#N)cnn12 [Example 274] ?
Marked response: 99

Exam item: Same again, this time with CC(C)(O)c1cc2nn([C@H]3CC[C@H](N4CCN(C(=O)[C@@H]5CCN(c6ccc(N7CCC(=O)NC7=O)cc6)C5)CC4)CC3)cc2cc1NC(=O)c1ccc2cc(C#N)cnn12 [Example 263]
Marked response: 99

Exam item: Same question for CC(C)(O)c1cc2nn([C@H]3CC[C@H](N4CCN([C@H]5C[C@H](c6ccc(N[C@@H]7CCC(=O)NC7=O)cc6)C5)CC4)CC3)cc2cc1NC(=O)c1ccc2cc(C#N)cnn12 [Example 272] please.
Marked response: 94

Exam item: Would you mind doing CC(C)(O)c1cc2nn(C3CCN(C4CCN(C(=O)[C@@H]5CCN(c6cc(F)c([C@H]7CCC(=O)NC7=O)c(F)c6)C5)CC4)CC3)cc2cc1NC(=O)c1ccc2cc(C#N)cnn12 [Example 347] as well?
Marked response: 103

Exam item: Next record, please: Cc1nc(C2CCC(=O)NC2=O)ccc1N1CCC(N2CCN(C34CC(n5cc6cc(NC(=O)c7ccc8cc(C#N)cnn78)c(C(C)(C)O)cc6n5)(C3)C4)CC2)CC1 (centres unmarked) [Example 419]
Marked response: 97

* * *

# test-target: IRAK4 (Homo sapiens, UniProt Q9NWZ3)
# Construct: endogenous in cells; host or cells: Karpas299
# protocol-summary: IRAK4 Degradation Assay (Karpas299, HTRF/TR-FRET)
# Format: cell-based
# condition-set: Karpas-299 cells, 24 h treatment; maximum percentage of degradation; read-out: IRAK4 in Karpas-299 (24 h) Dmax (%)
recorded-metric: Dmax (%)
Unit % implied. Number only.

Exam item: Request the reported Dmax associated with C[C@@H]1CN(CCc2cc(F)c([C@H]3CCC(=O)NC3=O)c(F)c2)CCN1[C@H]1CC[C@H](n2cc3cc(NC(=O)c4ccc5cc(C#N)cnn45)c(C(C)(C)O)cc3n2)CC1 [Example 299]
Marked response: 98

Exam item: Now this one: CC(C)(O)c1cc2nn([C@H]3CC[C@H](N4CCN(CCNc5cccc6c5C(=O)N(C5CCC(=O)NC5=O)C6=O)CC4)CC3)cc2cc1NC(=O)c1ccc2cc(C#N)cnn12 (some centres unmarked) [Example 437]
Marked response: 99

Exam item: Same read-out for COC[C@H]1CN(C2CN(c3cc(F)c([C@H]4CCC(=O)NC4=O)c(F)c3)C2)CCN1[C@H]1CC[C@H](n2cc3cc(NC(=O)c4ccc5cc(C#N)cnn45)c(C(C)(C)O)cc3n2)CC1 [Example 323] ?
Marked response: 94

Exam item: Now consider CC(C)(O)c1cc2nn([C@H]3CC[C@H](N4CCN(C(=O)C5CN(c6cc(F)c([C@H]7CCC(=O)NC7=O)c(F)c6)C5)CC4)CC3)cc2cc1NC(=O)c1cccc(C(F)(F)F)n1 [Example 38] and answer again.
Marked response: 99

Exam item: Let us now turn to CC(C)(O)c1cc2nn([C@H]3CC[C@H](N4CCN(C(=O)C5CN(c6cc(F)c([C@H]7CCC(=O)NC7=O)c(F)c6)C5)CC4)CC3)cc2cc1NC(=O)c1ccc2cc(C#N)cnn12 [Example 178]
Marked response: 98

* * *

# test-target: IRAK4 (Homo sapiens)
# Construct: endogenous in cells; host or cells: Karpas299
# protocol-summary: IRAK4 Degradation Assay with Human Serum (Karpas299, HTRF/TR-FRET)
# Format: cell-based
# condition-set: Karpas-299 in human serum, 24 hrs treatment; read-out: IRAK4 degradtion with human serum assay Dmax (%)
recorded-metric: Dmax (%)
Express your answer in %, writing the number without its unit.

Exam item: Would you kindly share the measured Dmax for Cc1nc(C2CCC(=O)NC2=O)ccc1N1CCC(N2CCN([C@H]3CC[C@H](n4cc5cc(NC(=O)c6ccc7cc(C#N)cnn67)c(C(C)(C)O)cc5n4)CC3)CC2)CC1 (stereo partly shown) [Example 398] ?
Marked response: 98

Exam item: What do you have for C[C@@H]1CN(C2CCN(c3cc(F)c([C@H]4CCC(=O)NC4=O)c(F)c3)CC2)CCN1[C@H]1CC[C@H](n2cc3cc(NC(=O)c4ccc5cc(C#N)cnn45)c(C(C)(C)O)cc3n2)CC1 [Example 301] ?
Marked response: 102

Exam item: Input CC(C)(O)C[C@H]1CN(CCc2cc(F)c([C@H]3CCC(=O)NC3=O)c(F)c2)CCN1[C@H]1CC[C@H](n2cc3cc(NC(=O)c4ccc5cc(C#N)cnn45)c(C(C)(C)O)cc3n2)CC1 [Example 369]
Marked response: 97

Exam item: Now consider COC[C@H]1CN(CC2CN(c3cc(F)c([C@H]4CCC(=O)NC4=O)c(F)c3)C2)CCN1[C@H]1CC[C@H](n2cc3cc(NC(=O)c4ccc5cc(C#N)cnn45)c(C(C)(C)O)cc3n2)CC1 [Example 322] and answer again.
Marked response: 101

Exam item: Record: CC(C)(O)c1cc2nn([C@H]3CC[C@H](N4CCN(C[C@@H]5CCN(c6ccc7c(c6)C(=O)N(C6CCC(=O)NC6=O)C7=O)C5)CC4)CC3)cc2cc1NC(=O)c1ccc2cc(C#N)cnn12 (stereo partly shown) [Example 431]
Marked response: 95

Exam item: Also CC(C)(O)c1cc2nn([C@H]3CC[C@H](N4CCN(CCc5cc(F)c([C@H]6CCC(=O)NC6=O)c(F)c5)C[C@@H]4CC#N)CC3)cc2cc1NC(=O)c1ccc2cc(C#N)cnn12 [Example 389] , if possible.
Marked response: 100

Exam item: Again, but for CC(C)(O)c1cc2nn([C@H]3CC[C@H](N4CCN(C5CCN(c6ccc(C7CCC(=O)NC7=O)nc6)CC5)CC4)CC3)cc2cc1NC(=O)c1ccc2cc(C#N)cnn12 (stereo partly shown) [Example 254]
Marked response: 98

Exam item: Also, COc1cc(N2CC(C(=O)N3CCN([C@H]4CC[C@H](n5cc6cc(NC(=O)c7ccc8cc(C#N)cnn78)c(C(C)(C)O)cc6n5)CC4)CC3)C2)c(F)cc1N1CCC(=O)NC1=O [Example 258] please.
Marked response: 97

Exam item: Here is the next compound: C[C@@H]1CN(C(=O)C2CN(c3cc(F)c([C@H]4CCC(=O)NC4=O)c(F)c3)C2)CCN1[C@H]1CC[C@H](n2cc3cc(NC(=O)c4ccc5cc(C#N)cnn45)c(C(C)(C)O)cc3n2)CC1 [Example 298]
Marked response: 103

Exam item: Do the same for COC[C@H]1CN(C2CN(c3cc(F)c([C@H]4CCC(=O)NC4=O)c(F)c3)C2)CCN1[C@H]1CC[C@H](n2cc3cc(NC(=O)c4ccc5cc(C#N)cnn45)c(C(C)(C)O)cc3n2)CC1 [Example 323] please
Marked response: 98
